ASSAYED_TARGET: 5-LOX (Homo sapiens, UniProt P09917)
Sequence (P09917 whole entry): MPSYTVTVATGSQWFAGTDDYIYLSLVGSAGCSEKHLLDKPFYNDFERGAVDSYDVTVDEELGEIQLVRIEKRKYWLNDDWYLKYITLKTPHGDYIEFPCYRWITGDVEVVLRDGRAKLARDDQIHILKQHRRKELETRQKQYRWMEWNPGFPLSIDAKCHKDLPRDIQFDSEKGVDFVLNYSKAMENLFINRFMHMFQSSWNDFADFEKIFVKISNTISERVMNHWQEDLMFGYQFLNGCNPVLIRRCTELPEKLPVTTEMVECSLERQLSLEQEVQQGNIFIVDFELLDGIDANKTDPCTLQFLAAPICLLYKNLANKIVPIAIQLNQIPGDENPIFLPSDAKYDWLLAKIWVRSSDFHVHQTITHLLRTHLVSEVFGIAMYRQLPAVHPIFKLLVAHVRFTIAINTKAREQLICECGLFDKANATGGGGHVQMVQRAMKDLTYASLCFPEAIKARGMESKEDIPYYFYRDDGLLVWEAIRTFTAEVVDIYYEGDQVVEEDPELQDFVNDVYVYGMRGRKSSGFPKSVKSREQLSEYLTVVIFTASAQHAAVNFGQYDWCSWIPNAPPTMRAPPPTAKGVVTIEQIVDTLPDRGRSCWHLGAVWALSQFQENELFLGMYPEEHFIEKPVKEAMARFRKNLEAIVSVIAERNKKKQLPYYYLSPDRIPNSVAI
ASSAY_TEXT: Cell-free 5-LOX activity (isolated human recombinant enzyme)
MEASUREMENT_SETUP: read-out: 5-LOX enzyme IC50; isolated human 5-LOX, cell-free; mean ± SEM
I'd be grateful if you could share measured pIC50 for these entries.
Numbers only, as −log10 of the molar value.

Here are 2 compounds together with their reported answers.
compound="C/C(=C\\CC/C(C)=C/CC[C@]1(C)CCc2cc(OC(=O)CCC(=O)O)cc(C)c2O1)CCC=C(CO)CO [Compound 31]" value=7.05
compound="CCOC(=O)c1cc2c3c(c(C)cc2oc1=O)O[C@](C)(CC/C=C(\\C)CC/C=C(\\C)CCC=C(CO)CO)CC3 [Compound 43]" value=6.33

Please state pIC50 for every compound in the list that follows.
1. C/C(=C\CC[C@]1(C)CCc2cc(O)cc(C)c2O1)CCC=C(CO)CO [Compound 28]
2. C/C(=C\CC/C(C)=C/CC[C@]1(C)CCc2c(CN3CCCC3)c(O)cc(C)c2O1)CCC=C(CO)CO [Compound 35]
3. C/C(=C\CC/C(C)=C/CC[C@]1(C)CCc2cc(O)cc(C)c2O1)CC/C=C/C(=O)O [Compound 14]
4. C/C(=C\CC/C(C)=C/CC[C@]1(C)CCc2c(CN(C)C)c(O)cc(C)c2O1)CC/C=C(\C)C(=O)O [Compound 23]
5. C/C(=C\CC/C(C)=C/CC[C@]1(C)CCc2c(CN3CCCCC3)c(O)cc(C)c2O1)CCC=C(CO)CO [Compound 38]
6. CC(=O)c1cc2c(C)c3c(c(C)c2oc1=O)CC[C@@](C)(CC/C=C(\C)CC/C=C(\C)CCC=C(CO)CO)O3 [Compound 41]

A)
[6.77, 6.77, 6.36, 7.15, 6.96, 6.20]

Please state pIC50 for every compound in the list that follows.
1. C/C(=C\CC/C(C)=C/CC[C@]1(C)CCc2c(C)c(O)c(C=O)c(C)c2O1)CCC=C(CO)CO [Compound 33]
2. C/C(=C\CC/C(C)=C/CC[C@]1(C)CCc2c(CN3CCN(C)CC3)c(O)cc(C)c2O1)CCC=C(CO)CO [Compound 39]
3. C/C(=C\CC[C@]1(C)CCc2c(C)c(O)cc(C)c2O1)CC/C=C(\C)CCCC(C)C(=O)O (stereo partly drawn) [Compound 19a]
4. C/C(=C\CC/C(C)=C/CC[C@]1(C)CCc2c(C)c(O)cc(C)c2O1)CCC=C(CO)CO [Compound 27b]
5. C/C(=C\CC/C(C)=C/CC[C@]1(C)CCc2c(CN(C)C)c(O)cc(C)c2O1)CCC=C(CO)CO [Compound 36]
6. C/C(=C\CC/C(C)=C/CC[C@]1(C)CCc2c(C=O)c(O)cc(C)c2O1)CCC=C(CO)CO [Compound 34]
7. C/C(=C\CC[C@]1(C)CCc2cc(O)cc(C)c2O1)CC/C=C(\C)CCC(=O)O [Compound 15b]

A)
1: 6.77; 2: 6.51; 3: 6.09; 4: 7.05; 5: 6.96; 6: 6.77; 7: 6.33

Please state pIC50 for every compound in the list that follows.
1. C/C(=C\CC/C(C)=C/CC[C@]1(C)CCc2c(CN3CCOCC3)c(O)cc(C)c2O1)CCC=C(CO)CO [Compound 37]
2. C/C(=C\CC[C@]1(C)CCc2cc(O)cc(C)c2O1)CC/C=C/C(=O)O [Compound 16]
3. C/C(=C\CC[C@]1(C)CCc2cc(O)cc(C)c2O1)CCC(O)C(C)(O)CCC=C(CO)CO (stereo partly drawn) [Compound 30]
4. C/C(=C\CC[C@]1(C)CCc2c(C)c(O)c(C)c(C)c2O1)CC/C=C(\C)CCC(=O)O [Compound 15a]

A)
1. 6.92
2. 6.04
3. 6.42
4. 6.36

====

ASSAYED_TARGET: 5-LOX (Homo sapiens, UniProt P09917)
ASSAY_TEXT: 5-LOX product formation in activated PMNL;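 also: freshly isolated human PMNL in PBS pH 7.4 plus glucose, preincubated 10 min at 37 °C with compound, 5-LOX products (all-trans LTB4 isomers, 5-HETE) quantified by RP-HPLC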
MEASUREMENT_SETUP: read-out: 5-LOX PMNL IC50; 5-LOX product formation in activated PMNL; mean ± SEM
OBSERVATION_TYPE: pIC50
Answers are plain numbers, as −log10 of the molar value.

Here are 2 compounds together with their reported answers.
compound="C/C(=C\\CC/C(C)=C/CC[C@]1(C)CCc2c(C=O)c(O)cc(C)c2O1)CCC=C(CO)CO [Compound 34]" assayed_target="5-LOX (Homo sapiens, UniProt P09917)" value=5.74
compound="C/C(=C\\CC[C@]1(C)CCc2cc(O)cc(C)c2O1)CC/C=C(\\C)CCC(=O)O [Compound 15b]" assayed_target="5-LOX (Homo sapiens, UniProt P09917)" value=5.66

Query compound follows.
Q) Lab request: please report pIC50 under test system 5-LOX (Homo sapiens, UniProt P09917) for C/C(=C\CC/C(C)=C/CC[C@]1(C)CCc2c(CN3CCN(C)CC3)c(O)cc(C)c2O1)CCC=C(CO)CO [Compound 39]
A) 5.69

====

I'd be grateful if you could share measured IC50 for these entries.
ASSAYED_TARGET: 5-LOX (Homo sapiens, UniProt P09917)
ASSAY_TEXT: Cell-free 5-LOX activity (isolated human recombinant enzyme)

compound="C/C(=C\\CC/C(C)=C/CC[C@]1(C)CCc2c(CO)c(O)cc(C)c2O1)CCC=C1COC(c2ccc([N+](=O)[O-])cc2)OC1 (some centres unmarked)" value="0.21 µM"
compound=COCOc1cc(C)c2c(c1C=O)CC[C@@](C)(CCC[C@H](C)CCC[C@H](C)CCCC(C)C)O2 value="> 1 µM"

Please state IC50 for every compound in the list that follows.
1. Cc1cc(O)c(C=O)c2c1O[C@](C)(CCC[C@H](C)CCC[C@H](C)CCCC(C)C)CC2
2. Cc1cc(O)c(C(=O)O)c2c1O[C@](C)(CCC[C@H](C)CCC[C@H](C)CCCC(C)C)CC2
3. COc1ccc(C2OCC(=CCC/C(C)=C/CC/C(C)=C/CC[C@]3(C)CCc4cc(OCCCC(=O)O)cc(C)c4O3)CO2)cc1OC (some centres unmarked)

A)
1: > 1 µM; 2: > 1 µM; 3: > 1 µM

====

ASSAYED_TARGET: 5-LOX (Homo sapiens, UniProt P09917)
ASSAY_TEXT: Cell-free 5-LOX activity (isolated human recombinant enzyme)
I'd be grateful if you could share measured IC50 for these entries.
Answers are plain numbers, in nM.

Here are 3 molecules together with their reported answers.
molecule="COc1ccc(C2OCC(=CCC/C(C)=C/CC/C(C)=C/CC[C@]3(C)CCc4c(C)c(O)c(CO)c(C)c4O3)CO2)cc1OC (stereo partly shown) [Compound 46]" uom=nM value=90
molecule="C/C(=C\\CC/C(C)=C/CC[C@]1(C)CCc2cc(O)cc(C)c2O1)CC/C=C(/C=O)CO [Compound 11]" uom=nM value=120
molecule="COc1ccc(C2OCC(=CCC/C(C)=C/CC/C(C)=C/CC[C@]3(C)CCc4cc(O)cc(C)c4O3)CO2)cc1OC (stereo partly shown) [Compound 44]" uom=nM value=210

Query molecule follows.
Q) Bench note: what IC50 did Cc1cc(O)cc2c1O[C@](C)(CCC[C@H](C)CCC[C@H](C)CCCC(C)C)CC2 [Compound 1d, δ-tocopherol] show?
A) 600

====

ASSAYED_TARGET: 5-LOX (Homo sapiens)
ASSAY_TEXT: Cell-free 5-LOX activity (isolated human recombinant enzyme)
MEASUREMENT_SETUP: read-out: 5-LOX enzyme residual activity at 1 µM (Table S1)
I'd be grateful if you could share measured remaining activity at 1 µM for these entries.
Give bare numbers, in %.

Here are 3 compounds together with their reported answers.
compound="Cc1c(O)cc2c(c1C)O[C@](C)(CCC[C@H](C)CCC[C@H](C)CCCC(C)C)CC2 [Compound 1c]" value=47
compound="Cc1cc(O)cc2c1O[C@](C)(CCCC(C)CCCC(C)CCCC(C)CO)CC2 (stereo partly shown) [Compound 9b]" value=2.1
compound="C/C(=C\\CC/C(C)=C/CC/C(C)=C/CC[C@]1(C)CCc2c(C)c(O)cc(C)c2O1)CO [Compound 10b]" value=0.2

Please state remaining activity at 1 µM for every compound in the list that follows.
1. C/C(=C/CC/C(C)=C/CC/C(C)=C/CC[C@]1(C)CCc2cc(O)cc(C)c2O1)CO [Compound 10e, δ-(Z)-deoxyamplexichromanol]
2. C/C(=C\CC/C(C)=C/CC[C@]1(C)CCc2cc(O)cc(C)c2O1)CC/C=C(/C=O)CO [Compound 11]
3. CC(C)=CCC/C(C)=C/CC/C(C)=C/CC[C@]1(C)CCc2cc(O)c(C)c(C)c2O1 [Compound 6c]
4. C/C(=C\CC/C(C)=C/CC/C(C)=C/CC[C@]1(C)CCc2c(C)c(O)c(C)c(C)c2O1)CO [Compound 10a]

A)
1: 0.3; 2: 0.4; 3: 6.4; 4: 0.2
